tested on: human lung adenocarcinoma cell line A549; experiment: CCK-8 in vitro antitumor activity (Effect Example 1); type: cell-based; settings: A549, CCK-8, 72 hours
Documented IC50 across a set of molecules
// unit must come after the numeric part

molecule | IC50
CCCOP(=O)(CN1CCC(NC(=O)O[C@H]2CC[C@@]3(C)[C@H](CC[C@@H]4[C@@H]3CC[C@]3(C)[C@@H](c5ccc(=O)oc5)CC[C@]43O)C2)CC1)OCCC | 0.058 µM
C[C@]12CC[C@H](OC(=O)NC3CCN(CP(=O)(OC4CCCCC4)OC4CCCCC4)CC3)C[C@H]1CC[C@@H]1[C@@H]2CC[C@]2(C)[C@@H](c3ccc(=O)oc3)CC[C@]12O | 0.023 µM

// next item, IC50 requested
Ask: State, in one line, measured IC50 of COc1cccc2c1C(=O)c1c(O)c3c(c(O)c1C2=O)C[C@@](O)(C(=O)CO)C[C@@H]3O[C@H]1C[C@H](N)[C@H](O)[C@H](C)O1 [Doxorubicin, reference compound]
Reply: 0.92 µM

* * *

test system: Human lung adenocarcinoma cells A549; assay: CCK-8 in vitro antitumor activity (Table 5); assay type: cell-based; details: A549, CCK-8, 72 hours
IC50 overview
Output spec: scalar in µM, unitless text.

Below are worked cases with known answers.
compound | test-system | unit-spec | IC50
CCOP(=O)(CN1CCN(C(=O)O[C@H]2CC[C@@]3(C)C(CCC4C3CC[C@]3(C)[C@@H](c5ccc(=O)oc5)CC[C@]43O)C2)CC1)OCC (stereo partly shown) [IVb] | Human lung adenocarcinoma cells A549 | µM | 0.018
CCOP(=O)(CCCN1CCN(C(=O)O[C@H]2CC[C@@]3(C)C(CCC4C3CC[C@]3(C)[C@@H](c5ccc(=O)oc5)CC[C@]43O)C2)CC1)OCC (stereo partly shown) [IVc] | Human lung adenocarcinoma cells A549 | µM | 0.011
COc1cccc2c1C(=O)c1c(O)c3c(c(O)c1C2=O)C[C@@](O)(C(=O)CO)C[C@@H]3O[C@H]1C[C@H](N)[C@H](O)[C@H](C)O1 [Doxorubicin, reference compound] | Human lung adenocarcinoma cells A549 | µM | 0.008

Ask: # return recorded IC50 for input CC(C)OP(=O)(CN1CCN(C(=O)O[C@H]2CC[C@@]3(C)C(CCC4C3CC[C@]3(C)[C@@H](c5ccc(=O)oc5)CC[C@]43O)C2)CC1)OC(C)C (stereo partly shown) [IVa]
Reply: 0.019

* * *

test system: human lung adenocarcinoma cell line A549; experiment: CCK-8 in vitro antitumor activity (Effect Example 1); type: cell-based; conditions: A549, CCK-8, 72 hours
I'd appreciate it if you marked entries Criterion met when IC50 is lower than 0.2 µM and Criterion not met when it is not.

molecule | test-system | group
C[C@]12CC[C@H](OC(=O)NC3CCN(CP(=O)(OC4CCC4)OC4CCC4)CC3)C[C@H]1CC[C@@H]1[C@@H]2CC[C@]2(C)[C@@H](c3ccc(=O)oc3)CC[C@]12O | human lung adenocarcinoma cell line A549 | Criterion met

Ask: IC50 strictly < 0.2 µM for this molecule? "CO[C@H]1CN(C(=O)O[C@H]2CC[C@@]3(C)[C@H](CC[C@@H]4[C@@H]3CC[C@]3(C)[C@@H](c5ccc(=O)oc5)CC[C@]43O)C2)CC[C@H]1NCP(=O)(OC(C)C)OC(C)C"
Reply: Criterion not met

Ask: # TODO verify IC50 < 0.2 µM strictly for this molecule: "C[C@]12CC[C@H](OC(=O)NC3CCN(CP(=O)(OC4CCCC4)OC4CCCC4)CC3)C[C@H]1CC[C@@H]1[C@@H]2CC[C@]2(C)[C@@H](c3ccc(=O)oc3)CC[C@]12O"
Reply: Criterion not met

Ask: I wonder whether CC(C)OP(=O)(CNC1CCN(C(=O)O[C@H]2CC[C@@]3(C)[C@H](CC[C@@H]4[C@@H]3CC[C@]3(C)[C@@H](c5ccc(=O)oc5)CC[C@]43O)C2)CC1F)OC(C)C (stereo partly drawn) has IC50 below 0.2 µM. Can you tell?
Reply: Criterion not met
